pEC50: recorded values
Biological target: TrkB (Homo sapiens)
Sequence (Q16620 32-822): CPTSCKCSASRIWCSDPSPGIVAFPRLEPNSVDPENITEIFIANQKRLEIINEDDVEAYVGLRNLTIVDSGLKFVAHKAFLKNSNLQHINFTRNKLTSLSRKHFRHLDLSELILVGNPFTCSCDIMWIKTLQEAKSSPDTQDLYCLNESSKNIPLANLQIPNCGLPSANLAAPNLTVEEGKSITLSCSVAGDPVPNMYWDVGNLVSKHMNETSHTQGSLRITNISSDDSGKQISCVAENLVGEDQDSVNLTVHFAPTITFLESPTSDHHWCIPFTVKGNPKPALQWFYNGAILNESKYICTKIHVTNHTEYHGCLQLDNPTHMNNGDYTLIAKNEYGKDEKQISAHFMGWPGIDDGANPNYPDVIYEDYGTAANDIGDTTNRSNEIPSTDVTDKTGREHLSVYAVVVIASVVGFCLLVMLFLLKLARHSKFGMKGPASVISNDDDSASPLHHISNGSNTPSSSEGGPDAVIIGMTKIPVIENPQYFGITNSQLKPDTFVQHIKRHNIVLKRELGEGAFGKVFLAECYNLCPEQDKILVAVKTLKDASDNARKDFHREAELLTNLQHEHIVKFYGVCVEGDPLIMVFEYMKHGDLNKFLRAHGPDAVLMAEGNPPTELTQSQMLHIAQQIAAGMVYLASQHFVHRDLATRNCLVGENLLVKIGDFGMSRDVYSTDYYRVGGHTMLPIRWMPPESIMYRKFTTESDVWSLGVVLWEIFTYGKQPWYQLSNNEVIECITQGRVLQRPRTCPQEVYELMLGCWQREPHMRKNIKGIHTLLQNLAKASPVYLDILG
Assay: Enzyme Fragment Complementation cell-based assay, TrkB
Conditions: U2OS-cells over-expressing TrkB; ligand 10 ng/mL; 3 hours incubation
pEC50 (log units): -log10 of the concentration in mol/L.

{"columns": ["Smiles structure", "pEC50"],
 "data": [
  ["O=c1[nH]c(=O)n(-c2ccc(Oc3ccccc3)c(Cl)c2)c(=O)n1-c1ccccc1", 6.17],
  ["COC(=O)c1cc(-n2c(=O)[nH]c(=O)n(-c3ccccc3)c2=O)ccc1Oc1ccccc1", 6.27],
  ["Cc1cc(-n2c(=O)[nH]c(=O)n(-c3ccc(F)cc3)c2=O)ccc1Oc1ccccc1", 6.44],
  ["COc1cccc(-n2c(=O)[nH]c(=O)n(-c3ccc(Oc4ccccc4)c(C)c3)c2=O)c1", 6.72],
  ["COCCOc1cc(-n2c(=O)[nH]c(=O)n(-c3cccc(OC)c3)c2=O)ccc1Oc1ccccc1", 6.42],
  ["Cc1cn(Cc2ccccc2)c2ccc(-n3c(=O)[nH]c(=O)n(-c4ccccc4)c3=O)cc12", 6.34],
  ["O=c1[nH]c(=O)n(-c2ccc(Oc3ccccc3)cc2)c(=O)n1-c1ccccc1", 5.85],
  ["CCOc1cc(-n2c(=O)[nH]c(=O)n(-c3ccccc3)c2=O)ccc1Oc1ccccc1", 6.43]
]}

Alright, here's another compound for you.
[in] For the record Cc1cn(-c2ccccc2)c2ccc(-n3c(=O)[nH]c(=O)n(-c4ccccc4)c3=O)cc12 , what value of pEC50 is listed for TrkB (Homo sapiens)?
[out] 6.59

====

Molecular target: TrkC (Homo sapiens, UniProt Q16288)
Construct: expressed in transfected cells; host or cells: U2OS
Sequence (Q16288 32-839): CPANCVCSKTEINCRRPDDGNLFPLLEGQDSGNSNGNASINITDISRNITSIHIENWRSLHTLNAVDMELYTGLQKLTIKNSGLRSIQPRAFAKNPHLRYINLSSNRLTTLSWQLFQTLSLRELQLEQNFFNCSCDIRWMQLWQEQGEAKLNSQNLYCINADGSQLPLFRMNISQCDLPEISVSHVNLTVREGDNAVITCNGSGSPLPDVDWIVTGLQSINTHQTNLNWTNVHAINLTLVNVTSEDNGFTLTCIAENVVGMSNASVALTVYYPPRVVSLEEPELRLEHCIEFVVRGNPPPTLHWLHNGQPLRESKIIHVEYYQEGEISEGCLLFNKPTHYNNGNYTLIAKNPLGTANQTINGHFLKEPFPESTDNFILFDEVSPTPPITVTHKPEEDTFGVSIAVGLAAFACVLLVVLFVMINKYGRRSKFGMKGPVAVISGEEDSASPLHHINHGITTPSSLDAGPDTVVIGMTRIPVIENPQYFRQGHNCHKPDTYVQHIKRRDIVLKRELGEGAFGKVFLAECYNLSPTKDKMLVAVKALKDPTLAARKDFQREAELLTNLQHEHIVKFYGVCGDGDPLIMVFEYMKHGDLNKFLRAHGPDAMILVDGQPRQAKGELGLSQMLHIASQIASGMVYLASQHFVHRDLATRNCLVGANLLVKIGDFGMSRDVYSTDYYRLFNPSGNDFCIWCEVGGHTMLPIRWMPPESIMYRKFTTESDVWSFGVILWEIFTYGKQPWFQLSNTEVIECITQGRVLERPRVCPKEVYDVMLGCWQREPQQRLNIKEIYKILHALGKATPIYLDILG
Assay: Enzyme Fragment Complementation cell-based assay, TrkC
Details: U2OS-cells over-expressing TrkC; ligand 10 ng/mL; 3 hours incubation
log10 EC50: recorded values
// stored as log10 of EC50 expressed in µM

Use these answered entries as a reference point.
{"columns": ["Smiles structure", "Assay target", "Measured value"],
 "data": [
  ["O=c1[nH]c(=O)n(-c2ccc(Oc3ccccc3)c(OC3CCCC3)c2)c(=O)n1-c1ccccc1", "TrkC (Homo sapiens, UniProt Q16288)", -0.11],
  ["O=c1[nH]c(=O)n(-c2ccc(Oc3ccccc3)c(Br)c2)c(=O)n1-c1ccccc1", "TrkC (Homo sapiens, UniProt Q16288)", -0.72],
  ["Cn1c(=O)[nH]c(=O)n(-c2ccc(Oc3ccccc3)c(OCc3ccccc3)c2)c1=O", "TrkC (Homo sapiens, UniProt Q16288)", -0.05],
  ["Cc1cn(-c2ccccc2)c2ccc(-n3c(=O)[nH]c(=O)n(C)c3=O)cc12", "TrkC (Homo sapiens, UniProt Q16288)", -1.40],
  ["COCCOc1cc(-n2c(=O)[nH]c(=O)n(-c3ccc(Cl)cc3)c2=O)ccc1Oc1ccccc1", "TrkC (Homo sapiens, UniProt Q16288)", -0.48],
  ["COCCOc1cc(-n2c(=O)[nH]c(=O)n(-c3ccccc3)c2=O)ccc1Oc1ccccc1", "TrkC (Homo sapiens, UniProt Q16288)", -0.47]
]}

Alright, here's another compound for you.
[in] Value lookup for log10 EC50; key = Cc1cc(-n2c(=O)[nH]c(=O)n(-c3cnn(-c4ccccc4)c3)c2=O)ccc1Oc1ccccc1
[out] 0.04

====

pEC50: recorded values
Biological target: TrkC (Homo sapiens, UniProt Q16288)
Experiment: Enzyme Fragment Complementation cell-based assay, TrkC
Conditions: U2OS-cells over-expressing TrkC; ligand 10 ng/mL; 3 hours incubation
Source text: A high throughput cell-based screen has been used to identify positive modulators of TrkA, TrkB and TrkC. The screen involves the use of cell-based assay overexpressing TrkA, TrkB or TrkC. […] The assay uses Enzyme Fragment Complementation (EFC) technique, which is a proximity-based assay. […] The activation of the receptor is quantified by measuring the amount of active beta-galactosidase by its conversion of a non-luminescent substrate into a luminescent product. […]
pEC50 (log units): -log10 of the concentration in mol/L.

Use these answered entries as a reference point.
{"columns": ["Compound", "Measured value"],
 "data": [
  ["Cc1cn(-c2ccccc2)c2ccc(-n3c(=O)[nH]c(=O)n(-c4ccccc4)c3=O)cc12 [Example 35]", 6.30],
  ["O=c1[nH]c(=O)n(-c2ccc(Oc3ccccc3)c(Cl)c2)c(=O)n1-c1ccccc1 [Example 39]", 6.06],
  ["CC(C)Oc1cc(-n2c(=O)[nH]c(=O)n(C)c2=O)ccc1Oc1ccccc1 [Example 26]", 5.70],
  ["Cc1cc(-n2c(=O)[nH]c(=O)n(-c3cccc4[nH]ccc34)c2=O)ccc1Oc1ccccc1 [Example 49]", 5.70],
  ["O=c1[nH]c(=O)n(-c2ccc(Oc3ccccc3)cc2)c(=O)n1-c1ccccc1 [Example 1]", 5.85],
  ["CC(C)Oc1cc(-n2c(=O)[nH]c(=O)n(-c3ccccc3)c2=O)ccc1Oc1ccccc1 [Example 27]", 6.48],
  ["Cn1c(=O)[nH]c(=O)n(-c2ccc(Oc3ccc(Cl)cc3)cc2)c1=O [Example 64]", 5.02],
  ["COCCOc1cc(-n2c(=O)[nH]c(=O)n(-c3cccc(C)c3)c2=O)ccc1Oc1ccccc1 [Example 57]", 7.05],
  ["O=c1[nH]c(=O)n(-c2ccc(Nc3ccccc3)cc2)c(=O)n1-c1ccccc1 [Example 20]", 5.49],
  ["O=c1[nH]c(=O)n(-c2ccc(Oc3ccccc3)c(OCC3COC3)c2)c(=O)n1-c1ccccc1 [Example 25]", 6.00]
]}

[in] Value lookup for pEC50; key = Cc1cn(Cc2ccccc2)c2ccc(-n3c(=O)[nH]c(=O)n(C)c3=O)cc12 [Example 38]
[out] 5.62

[in] Value lookup for pEC50; key = Cc1cc(-n2c(=O)[nH]c(=O)n(-c3ccccc3)c2=O)ccc1Sc1ccccc1 [Example 34]
[out] 5.92

====

Molecular target: TrkA (Homo sapiens, UniProt P04629)
Sequence (P04629 33-796): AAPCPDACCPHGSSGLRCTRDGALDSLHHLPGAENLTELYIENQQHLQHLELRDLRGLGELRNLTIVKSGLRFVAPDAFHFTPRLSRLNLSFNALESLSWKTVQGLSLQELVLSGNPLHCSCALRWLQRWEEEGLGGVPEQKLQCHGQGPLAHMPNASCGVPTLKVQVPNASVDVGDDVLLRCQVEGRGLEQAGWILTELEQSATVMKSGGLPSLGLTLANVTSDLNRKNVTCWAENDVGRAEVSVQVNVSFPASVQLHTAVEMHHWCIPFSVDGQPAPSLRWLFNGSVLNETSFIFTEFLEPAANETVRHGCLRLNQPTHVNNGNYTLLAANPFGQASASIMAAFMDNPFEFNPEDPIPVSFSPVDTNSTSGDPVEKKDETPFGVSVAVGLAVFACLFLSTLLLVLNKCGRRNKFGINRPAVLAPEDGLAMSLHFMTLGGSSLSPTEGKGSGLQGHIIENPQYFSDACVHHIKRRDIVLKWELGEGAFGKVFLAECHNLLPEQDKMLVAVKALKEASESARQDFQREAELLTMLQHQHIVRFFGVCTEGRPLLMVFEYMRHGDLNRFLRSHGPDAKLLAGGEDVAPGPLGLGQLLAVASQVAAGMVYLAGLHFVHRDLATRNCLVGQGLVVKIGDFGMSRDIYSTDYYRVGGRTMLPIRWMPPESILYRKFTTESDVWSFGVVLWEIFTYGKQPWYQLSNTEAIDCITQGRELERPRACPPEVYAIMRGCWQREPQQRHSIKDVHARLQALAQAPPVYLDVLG
Test: Enzyme Fragment Complementation cell-based assay, TrkA
Settings: U2OS-cells over-expressing TrkA; ligand 10 ng/mL; 3 hours incubation
pEC50: −log10 of the molar value.
Criterion: pEC50 meeting or surpassing 6. Met: 1. Not met: 0.

{"columns": ["Smiles structure", "Label class"],
 "data": [
  ["COc1cc(-n2c(=O)[nH]c(=O)n(-c3ccccc3)c2=O)ccc1Oc1ccccc1", 1],
  ["COCCOc1cc(-n2c(=O)[nH]c(=O)n(-c3ccccc3)c2=O)ccc1Oc1ccccc1", 1],
  ["O=c1[nH]c(=O)n(-c2ccc(Oc3ccccc3)c(OCC3COC3)c2)c(=O)n1-c1ccccc1", 1],
  ["O=c1[nH]c(=O)n(-c2ccc(OCc3ccccc3)cc2)c(=O)n1-c1ccccc1", 0]
]}

[in] Tell me whether pEC50 is at least 6 here: Cn1c(=O)[nH]c(=O)n(-c2ccc(Oc3ccccc3)c(Cl)c2)c1=O
[out] 0

[in] Tell me whether pEC50 is at least 6 here: Cc1cn(-c2ccccc2)c2ccc(-n3c(=O)[nH]c(=O)n(C)c3=O)cc12
[out] 1

[in] Tell me whether pEC50 is at least 6 here: COC(=O)c1cc(-n2c(=O)[nH]c(=O)n(-c3ccccc3)c2=O)ccc1Oc1ccccc1
[out] 1

[in] Tell me whether pEC50 is at least 6 here: Cc1cn(Cc2ccccc2)c2ccc(-n3c(=O)[nH]c(=O)n(C)c3=O)cc12
[out] 0

====

Target: TrkA (Homo sapiens)
Experiment: Enzyme Fragment Complementation cell-based assay, TrkA
Details: U2OS-cells over-expressing TrkA; ligand 10 ng/mL; 3 hours incubation
pEC50: −log10 of the molar value.
Criterion: pEC50 meeting or surpassing 6. Met: label 1. Not met: label 0.

{"columns": ["Smiles structure", "Label class"],
 "data": [
  ["COCCOc1cc(-n2c(=O)[nH]c(=O)n(-c3ccc(Cl)cc3)c2=O)ccc1Oc1ccccc1", "label 1"],
  ["Cc1cc(-n2c(=O)[nH]c(=O)n(-c3ccccc3)c2=O)ccc1Cc1ccccc1", "label 1"],
  ["COc1ccccc1-n1c(=O)[nH]c(=O)n(-c2ccc(Oc3ccccc3)c(C)c2)c1=O", "label 1"]
]}

Turning to the following compound.
[in] Tell me whether pEC50 is at least 6 here: O=c1[nH]c(=O)n(-c2ccc(Nc3ccccc3)cc2)c(=O)n1-c1ccccc1
[out] label 0

====

Target: TrkB (Homo sapiens)
Experiment: Enzyme Fragment Complementation cell-based assay, TrkB
Details: U2OS-cells over-expressing TrkB; ligand 10 ng/mL; 3 hours incubation
Description: A high throughput cell-based screen has been used to identify positive modulators of TrkA, TrkB and TrkC. The screen involves the use of cell-based assay overexpressing TrkA, TrkB or TrkC. […] The assay uses Enzyme Fragment Complementation (EFC) technique, which is a proximity-based assay. […] The activation of the receptor is quantified by measuring the amount of active beta-galactosidase by its conversion of a non-luminescent substrate into a luminescent product. […]
pEC50: recorded values
pEC50 (log units): -log10 of the concentration in mol/L.

{"columns": ["Compound", "Readout name", "Measured value"],
 "data": [
  ["Cc1cn(Cc2ccccc2)c2ccc(-n3c(=O)[nH]c(=O)n(C)c3=O)cc12 [Example 38]", "pEC50", 5.38]
]}

[in] Value lookup for pEC50; key = O=c1[nH]c(=O)n(-c2ccc3c(cnn3-c3ccccc3)c2)c(=O)n1-c1ccccc1 [Example 19]
[out] 6.06

[in] Value lookup for pEC50; key = Cn1c(=O)[nH]c(=O)n(-c2ccc(Oc3ccc(Cl)cc3)cc2)c1=O [Example 64]
[out] 5.23

[in] Value lookup for pEC50; key = Cc1ccccc1Oc1ccc(-n2c(=O)[nH]c(=O)n(-c3ccccc3)c2=O)cc1C [Example 62]
[out] 5.50

[in] Value lookup for pEC50; key = Cc1ccc(-n2c(=O)[nH]c(=O)n(-c3cnc(Oc4ccccc4)c(C)c3)c2=O)cc1 [Example 78]
[out] 5.42

[in] Value lookup for pEC50; key = COc1cccc(-n2c(=O)[nH]c(=O)n(-c3ccc(Oc4ccccc4)cc3)c2=O)c1 [Example 4]
[out] 6.02
